TEST DESCRIPTION: Solubility of compound at pH 7
Type: physicochemical
SETUP CONDITIONS: buffer
Parameter: solubility. Scope: all listed entries.
The response must be a number in µM with no trailing unit.

COMPOUND STRING: CC(C)(O)c1cc(C(F)(F)F)ncc1-c1ccc(C2(C(=O)Nc3ccc(F)cc3)COC2)cc1
REPORTED VALUE: 123

Now consider the entry below.
Prompt: Param item = `O=C(Nc1ccc(F)cc1)C1(c2ccc(-c3cnc(C(F)(F)F)cc3CO)cc2)COC1` ; retrieve measured solubility.
Completion: 145

====

TEST DESCRIPTION: Solubility of compound at pH 7
Assay type: physicochemical
SETUP CONDITIONS: buffer
Let's look at some compounds and their measured solubility.
Give your result in µM as a bare value.

Record excerpt, results attached:
COMPOUND STRING: O=C(Nc1ccc(F)cc1)C1(c2ccc(-c3nc(C4CC4)no3)cc2)COC1
UNIT ABBREV: µM
solubility: 141
--
COMPOUND STRING: O=C(Nc1ccc(F)cc1)C1(c2ccc(-n3cnc(C4CC4)cc3=O)cc2)COC1
UNIT ABBREV: µM
solubility: 143

Okay, now this compound:
Prompt: Requested read-out: solubility. Entry: `O=C(Nc1ccc(F)cc1)C1(c2ccc(-c3cnc(C(F)(F)F)cc3CO)cc2)CC(F)(F)C1`
Completion: 17
